Target: EGFR L858R (Homo sapiens, UniProt P00533, L858R)
Construct: purchased SignalChem E10-122BG
Sequence (P00533 25-1210 L858R): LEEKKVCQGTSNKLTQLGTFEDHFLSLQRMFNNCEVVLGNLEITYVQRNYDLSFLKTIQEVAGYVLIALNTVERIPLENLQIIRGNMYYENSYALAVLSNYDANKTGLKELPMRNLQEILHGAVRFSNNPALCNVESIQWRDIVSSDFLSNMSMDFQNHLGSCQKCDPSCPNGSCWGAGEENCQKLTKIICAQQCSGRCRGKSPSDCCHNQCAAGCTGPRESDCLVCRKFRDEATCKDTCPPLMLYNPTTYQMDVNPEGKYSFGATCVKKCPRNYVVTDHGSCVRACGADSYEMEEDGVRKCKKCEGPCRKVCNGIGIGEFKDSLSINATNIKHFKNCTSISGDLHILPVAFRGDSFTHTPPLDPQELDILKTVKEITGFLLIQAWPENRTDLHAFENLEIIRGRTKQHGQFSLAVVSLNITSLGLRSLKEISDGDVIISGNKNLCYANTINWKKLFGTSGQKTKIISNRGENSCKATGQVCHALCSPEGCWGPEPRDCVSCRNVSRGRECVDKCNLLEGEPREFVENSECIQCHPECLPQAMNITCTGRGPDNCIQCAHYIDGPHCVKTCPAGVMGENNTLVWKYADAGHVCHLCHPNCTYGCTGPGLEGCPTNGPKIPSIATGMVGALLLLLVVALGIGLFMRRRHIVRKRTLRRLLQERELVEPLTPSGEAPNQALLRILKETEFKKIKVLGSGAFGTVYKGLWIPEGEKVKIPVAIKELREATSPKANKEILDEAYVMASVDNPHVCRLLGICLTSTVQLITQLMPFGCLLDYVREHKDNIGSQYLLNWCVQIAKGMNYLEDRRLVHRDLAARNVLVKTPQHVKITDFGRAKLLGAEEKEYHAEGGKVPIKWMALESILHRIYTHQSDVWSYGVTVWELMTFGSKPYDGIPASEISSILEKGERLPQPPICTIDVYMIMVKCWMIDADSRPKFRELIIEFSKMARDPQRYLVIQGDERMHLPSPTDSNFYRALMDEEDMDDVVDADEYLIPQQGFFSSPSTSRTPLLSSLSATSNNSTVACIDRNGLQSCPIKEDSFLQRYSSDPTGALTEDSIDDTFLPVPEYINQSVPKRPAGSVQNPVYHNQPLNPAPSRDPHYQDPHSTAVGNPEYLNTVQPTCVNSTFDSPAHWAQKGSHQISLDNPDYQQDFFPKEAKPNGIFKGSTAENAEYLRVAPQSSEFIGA
Assay: Biochemical EGFR inhibition assay (Caliper mobility shift), EGFR L858R
Settings: biochemical Caliper mobility shift assay, EGFR L858R enzyme; read-out: Enz EGFR L858R IC50
Below, each of the molecules is paired with its reported IC50 value.
measurementName: IC50

molecule="CC[C@@H](Oc1cc(-c2cnn(C)c2)cc2ncnc(Nc3ccc4ncsc4c3F)c12)C1COC1 (single isomer, unassigned) [Example 92]" reported="≤ 10 nM"
molecule="CC(Oc1cc(-c2cnn(C)c2)cc2ncnc(Nc3ccc4ncsc4c3F)c12)C(=O)N1CCOCC1 (centres unmarked)" reported="≤ 10 nM"
molecule="C[C@@H]1CN(c2cc(O[C@H](C)C3COC3)c3c(Nc4ccc5ncsc5c4F)ncnc3c2)CCN1 (single isomer, unassigned) [Example 101]" reported="10.1 to 50 nM"
molecule=CN1CCC(n2cc(-c3cc4ncnc(Nc5ccc6ncsc6c5F)c4cc3F)cn2)CC1 reported="≤ 10 nM"
molecule="COc1nn(C)cc1-c1cc(O[C@H]2CNC[C@H]2F)c2c(Nc3ccc4ncsc4c3)ncnc2c1 (racemic)" reported="10.1 to 50 nM"
molecule="CC(Oc1cc(-c2cnn(C)c2)cc2ncnc(Nc3ccc4ncsc4c3F)c12)C(=O)N(C)C (centres unmarked)" reported="≤ 10 nM"
molecule=CCN1CCC(Oc2cc(-c3cnn(C)c3)cc3ncnc(Nc4ccc5ncsc5c4)c23)CC1 reported="≤ 10 nM"
molecule="CN1C[C@H](F)C[C@@H](Oc2cc(-c3cnn(C)c3)cc3ncnc(Nc4ccc5ncsc5c4)c23)C1 (single isomer, unassigned)" reported="≤ 10 nM"
molecule="C[C@H](CO)n1cc(-c2cc(O[C@H](C)C3COC3)c3c(Nc4ccc5ncsc5c4)ncnc3c2)cn1 (single isomer, unassigned) [Example 297]" reported="≤ 10 nM"
molecule=CCn1cc(-c2cc(OC3CCN(C4COC4)CC3)c3c(Nc4ccc5ncsc5c4)ncnc3c2)cn1 reported="≤ 10 nM"
molecule="OC(Cn1cc(-c2cc(OC3CCOCC3)c3c(Nc4ccc5ncsc5c4)ncnc3c2)cn1)C(F)(F)F (centres unmarked)" reported="≤ 10 nM"
molecule="CN1C[C@H](F)[C@H](Oc2cc(-c3cnn(C)c3)cc3ncnc(Nc4ccc5ncsc5c4)c23)C1 (single isomer, unassigned) [Example 380]" reported="≤ 10 nM"
molecule="C[C@@H](Oc1cc(-c2cnn(C)c2)cc2ncnc(Nc3ccc4ncsc4c3)c12)C1CN(C)C1 (single isomer, unassigned) [Example 384]" reported="10.1 to 50 nM"
molecule=Cn1cc(-c2cc(O[C@H]3CCCN(C4COC4)C3)c3c(Nc4ccc5ncsc5c4)ncnc3c2)cn1 reported="≤ 10 nM"
